- MEASUREMENT DESCRIPTION: in vitro
- CONDITION PARAMETERS: human, hela cells, % viability
Below, each entry is listed alongside its reported viability at 28.5 h, 10 µM.
Numbers only here, please. The scale is %.

A selection of reference data follows.
Which viability at 28.5 h, 10 µM is reported for this compound? `Nc1ncc(-c2cccc3cccnc23)nc1N1CCOCC1`
93.2

Which viability at 28.5 h, 10 µM is reported for this compound? `Cc1ccc(CN(CCCn2ccnc2)Cc2cnn(C)c2)s1`
97.3

Which viability at 28.5 h, 10 µM is reported for this compound? `N#Cc1ccc(COc2cccc(C(F)(F)F)c2)cc1`
103

Which viability at 28.5 h, 10 µM is reported for this compound? `Cc1cccc(OCCNC(=O)CSc2n[nH]c(=O)n2C2CC2)c1`
94.2

Which viability at 28.5 h, 10 µM is reported for this compound? Cc1ccc(NC(=O)C2CCCN2S(=O)(=O)c2ccc(F)cc2)cc1F (stereo not drawn)
91.6

Which viability at 28.5 h, 10 µM is reported for this compound? CC(=O)C(C)n1c(CN2CCCC(C)C2)nc2c1c(=O)n(C)c(=O)n2C (stereo not drawn)
88.2

Which viability at 28.5 h, 10 µM is reported for this compound? CC(C)NC(=O)[C@@H](C)C1CC[C@@]2(C)CC[C@H](NC(=O)c3cncnc3)[C@@H](C)[C@@H]2[C@H]1O (stereo partly drawn)
103

Which viability at 28.5 h, 10 µM is reported for this compound? Cc1cccnc1C(c1ccc(F)cc1)N(C)C(=O)C1CCN(CCc2ccc(Br)cc2)CC1 (stereo not drawn)
90.5

Which viability at 28.5 h, 10 µM is reported for this compound? `Cc1nnc(SCC(=O)Nc2ccc(CN3CCOCC3)cc2)s1`
96.4

Which viability at 28.5 h, 10 µM is reported for this compound? `Fc1ccc(-c2nccnc2NCc2ccncc2)cc1Cl`
95.5

---
Which viability at 28.5 h, 10 µM is reported for this compound? `Cc1ccc(-c2noc(CSc3nnc(-c4ccncc4)n3-c3ccc(C)cc3)n2)cc1`
101

Which viability at 28.5 h, 10 µM is reported for this compound? CCC(CN1CCCCC1)n1cncc1-c1cn(C)nc1C (stereo not drawn)
96.9

Which viability at 28.5 h, 10 µM is reported for this compound? `COc1ccc2[nH]cc(CCNC(=O)CCCN(C)C)c2c1`
96.4

Which viability at 28.5 h, 10 µM is reported for this compound? `Cc1ccc(CNS(=O)(=O)c2ccc3ccccc3c2)cc1`
102

Which viability at 28.5 h, 10 µM is reported for this compound? `N#CCCn1cc(C(=O)N2CCCCC2)c(-c2ccc(F)cc2)n1`
91.8

Which viability at 28.5 h, 10 µM is reported for this compound? `O=c1[nH]cc(-c2ccc(F)cc2)cc1CNCc1ccc(F)cc1`
96.1

Which viability at 28.5 h, 10 µM is reported for this compound? `Cc1nc2cc(-c3nccn3C)nn2c(N2CCN(c3ccc(O)cc3)CC2)c1C`
92.8

Which viability at 28.5 h, 10 µM is reported for this compound? O=C(C1CCC1)N1CCC(c2nc(C3CCCC3)no2)C1 (stereo not drawn)
88.1

Which viability at 28.5 h, 10 µM is reported for this compound? O=C(CC1C(=O)Nc2ncnn21)Nc1ccccc1 (stereo not drawn)
90.7

Which viability at 28.5 h, 10 µM is reported for this compound? Cc1cc(C2CCCCCN2Cc2c(C)nn(C)c2C)no1 (stereo not drawn)
87.6

* * *

Below, each entry is listed alongside its reported activity at 5 µM.
- System: C. trachomatis L2/434/Bu expressing GFP (CTL2-GFP)
- Construct: L2/434/Bu GFP intracellular growth in HeLa cells
- MEASUREMENT DESCRIPTION: microbe, parasite or virus in culture
- Parameters: C. trachomatis total inclusion area by high-content imaging, normalised to DMSO
- CONDITION PARAMETERS: Chlamydia trachomatis, HeLa, 28.5 h; total inclusion area; read-out: % of control remaining
Numbers only here, please. The scale is %.

Which activity at 5 µM is reported for this compound? COc1cccc(CNc2ccc(N3CCOCC3)cc2)c1OCc1ccccc1F [CBK074406]
63.6

---
Which activity at 5 µM is reported for this compound? CN(C(=O)c1ccc(Cl)c(Cl)c1)[C@H]1CCC[C@H]1N1CCCC1 [CBK003411C]
1.24

Which activity at 5 µM is reported for this compound? CC(Cc1nc(-c2nccn2C)cs1)n1cc(Cl)cn1 (stereo not shown) [CBK304114]
15.4

Which activity at 5 µM is reported for this compound? Cc1ccc(NC(=O)n2ccc3c(N4CCNCC4)cccc32)cc1[N+](=O)[O-] [CBK003747C]
59.3

Which activity at 5 µM is reported for this compound? CC(NC(C)(C)C)C(O)COc1ccc(Cl)c2c1C1CCC2CC1 (stereo not shown) [CBK017752C]
78.7

* * *

- MEASUREMENT DESCRIPTION: in vitro
- CONDITION PARAMETERS: human, hela cells, % viability
Threshold 90%. viability at 28.5 h, 10 µM below it: True. viability at 28.5 h, 10 µM at it or above: False.

Problem: For the compound CCOC(=O)Cn1nc(C)n2c(cc3sc(C)cc32)c1=O [CBK284096] , is viability at 28.5 h, 10 µM under 90%?
True

Problem: For the compound Cc1cc(N2CCCN3CCCCCC32)nc(N)n1 (stereo not drawn) [CBK169746] , is viability at 28.5 h, 10 µM under 90%?
False

Problem: For the compound O=C1COc2ccccc2C/C=C/CC2(CCN(Cc3cncnc3)CC2)CN1 [CBK292130] , is viability at 28.5 h, 10 µM under 90%?
False

Problem: For the compound O=C(O)/C=C/C(=O)NNC(=O)c1ccccc1Br [CBK261786] , is viability at 28.5 h, 10 µM under 90%?
False

Problem: For the compound COc1ccc(CN2CCC(C(=O)NC(c3ccc(OC)nc3)c3ccccc3C)CC2)cc1 (stereo not drawn) [CBK081445T] , is viability at 28.5 h, 10 µM under 90%?
True

Problem: For the compound COc1ccc(Cl)cc1NC(=O)CSc1nc2cc3ccccc3cc2[nH]1 [CBK268410] , is viability at 28.5 h, 10 µM under 90%?
True

* * *

- MEASUREMENT DESCRIPTION: in vitro
- CONDITION PARAMETERS: human, hela cells, % viability
Below, each entry is listed alongside its reported viability at 28.5 h, 10 µM.
Numbers only here, please. The scale is %.

A selection of reference data follows.
Which viability at 28.5 h, 10 µM is reported for this molecule? Cc1cc(CNC(=S)NC2CCCCC2)nn1C [CBK288519]
82.5

Which viability at 28.5 h, 10 µM is reported for this molecule? Cc1nc(C)c(C(=O)N2CCCc3ccccc32)s1 [CBK200345]
112

Which viability at 28.5 h, 10 µM is reported for this molecule? Cc1ccc(S(=O)(=O)N2CCCN(CC(O)c3ccccc3)CC2)cc1 (centres unmarked) [CBK297911]
104

Which viability at 28.5 h, 10 µM is reported for this molecule? N#Cc1ccc(N)c2ccccc12 [CBK015754]
90.6

Which viability at 28.5 h, 10 µM is reported for this molecule? Cc1ccc(C2(O)CCN(CCNC(=O)C3CCCCC3)CC2)cc1 [CBK283323]
97.4

Which viability at 28.5 h, 10 µM is reported for this molecule? CC(C)CC(NC(=O)c1cccnc1)c1nnc2n1CCNCC2 (centres unmarked) [CBK307149]
89.2

Which viability at 28.5 h, 10 µM is reported for this molecule? CCC(=O)N[C@H]1CC[C@]2(CC1)CNC(=O)c1ccccc1O2 [CBK281681]
106

Which viability at 28.5 h, 10 µM is reported for this molecule? CN(C)CCN1CCN(c2nc(-c3cccnc3)cnc2N)CC1 [CBK063503]
93.6

Which viability at 28.5 h, 10 µM is reported for this molecule? O=C1C2C=NNC2C(=O)N1c1ccccc1 (centres unmarked) [CBK022326]
103

Which viability at 28.5 h, 10 µM is reported for this molecule? Cc1nc(CCNC(=O)N2CCC(Oc3cccnc3)CC2)sc1Cl [CBK306636]
93.8

Then there is this molecule:
Which viability at 28.5 h, 10 µM is reported for this molecule? CC(C)N(C(=O)Cn1nc(-c2cccs2)ccc1=O)C(C)C [CBK282638]
90

* * *

Below, each entry is listed alongside its reported viability at 28.5 h, 10 µM.
- MEASUREMENT DESCRIPTION: in vitro
- CONDITION PARAMETERS: human, hela cells, % viability
Numbers only here, please. The scale is %.

A selection of reference data follows.
Which viability at 28.5 h, 10 µM is reported for this compound? `Cc1c(Cl)cccc1NC(=O)CSc1nccn1C`
91.5

Which viability at 28.5 h, 10 µM is reported for this compound? `Cc1cc(C)n2c(Nc3ccc(S(N)(=O)=O)cc3)nnc2n1`
110

Which viability at 28.5 h, 10 µM is reported for this compound? COC(=O)C1Cc2cc3c(cc2C(c2cc(OC)c(OC)c(OC)c2)N1)OCO3 (centres unmarked) [CBK200104T]
65.5

Which viability at 28.5 h, 10 µM is reported for this compound? Cn1ccnc1CN1CCN(Cc2nccn2C)CC1 [CBK266206C]
98.7

---
Which viability at 28.5 h, 10 µM is reported for this compound? `O=C(CSc1ncccc1C(=O)O)Nc1nnc(Cc2ccccc2)s1`
97.1
